- experimentalProtocol: qHTS for inhibitors of binding or entry into cells for Marburg Virus
- testSettings: Marburg virus pseudotyped entry inhibition, cell reporter; series mostly up to 37.8 µM
Out of some 300,000 compounds screened, about 5,400 (1.8%) were called active. Another 28% or so got no clear call; they are omitted. Calls come from the whole dose curve; tested in HEK293 cells. Only a selection was taken, and actives are over-represented in it overall.
Labels: 1.0 = active, 0.0 = inactive

smilesRepr: Cc1cc(C)cc(OCC(=O)Nc2nc3ccc([N+](=O)[O-])cc3s2)c1
qualitativeLabel: 0.0

smilesRepr: Clc1ccc(Nc2ncnc3c2nnn3Cc2ccccc2)cc1
qualitativeLabel: 0.0

smilesRepr: O=C(NC(Nc1nc2ccc([N+](=O)[O-])cc2s1)(C(F)(F)F)C(F)(F)F)c1ccccc1
qualitativeLabel: 1.0

smilesRepr: CCOc1ccc(C(=O)NCC(=O)N2CCCCCCC2)cc1OCC
qualitativeLabel: 0.0
